Target: Fructose-1,6-bisphosphatase 1 (Homo sapiens)
Sequence (P09467 whole entry): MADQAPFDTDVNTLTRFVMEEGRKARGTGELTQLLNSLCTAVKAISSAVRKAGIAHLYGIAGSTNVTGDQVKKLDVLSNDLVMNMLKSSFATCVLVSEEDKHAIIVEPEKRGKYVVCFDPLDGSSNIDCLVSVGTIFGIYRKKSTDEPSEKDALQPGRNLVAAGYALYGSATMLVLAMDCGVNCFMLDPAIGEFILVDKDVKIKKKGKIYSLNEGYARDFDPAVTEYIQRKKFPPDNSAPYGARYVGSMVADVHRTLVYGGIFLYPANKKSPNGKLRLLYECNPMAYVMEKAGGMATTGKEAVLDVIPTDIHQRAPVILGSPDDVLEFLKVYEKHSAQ
Test: Inhibition of human liver FBPase expressed in Escherichia coli by spectrophotometry
Recorded IC50 for the following molecules

STRUCTURE_SMILES_STRING	TEST_TARGET	IC50
Nc1ncnc2c1nc(/C=C/C(=O)O)n2[C@@H]1O[C@H](CO)[C@@H](O)[C@H]1O	Fructose-1,6-bisphosphatase 1 (Homo sapiens)	> 100 µM
Nc1ncnc2c1nc(NCC(=O)O)n2[C@@H]1O[C@H](CO)[C@@H](O)[C@H]1O	Fructose-1,6-bisphosphatase 1 (Homo sapiens)	> 100 µM
CC(C)(C)Cn1c(Cn2ccnc2P(=O)(O)O)nc2c(N)ncnc21	Fructose-1,6-bisphosphatase 1 (Homo sapiens)	> 100 µM
Nc1ncnc2c1nc(CCO[PH](=O)O)n2CCc1ccccc1	Fructose-1,6-bisphosphatase 1 (Homo sapiens)	> 1000 µM

Enquiry: Answer with the recorded IC50 of "CN(C)CC(C)(C)Cn1c(-c2ccc(P(=O)(O)O)o2)nc2c(N)ncnc21" only.
Return: > 10 µM
